Each entry below lists one item and its recorded solubility at 20 h value.
Experiment: Kinetic (report: thermodynamic) solubility in pH 7.4 phosphate buffer, quantitative LC-MS
Type: physicochemical
Details: phosphate buffer, 23 °C, pH 7.4, aqueous buffer, thermodynamic from solid, phosphate buffer pH 7.4, room temperature, LC-MS (supplementary report), read-out: Solubility
Answer with a number only, understood to be in µM.

Reference set, count: 2
| CPD SMILES | solubility at 20 h / µM |
| --- | --- |
| COCCO[C@H]1CO[C@H]2[C@@H]1OC[C@@H]2Oc1ccc(-c2c(C)[nH]c3ccc(Cl)cc3c2=O)cc1 | 127 |
| Cc1[nH]c2ccc(Cl)cc2c(=O)c1-c1ccc(O[C@H]2CO[C@H]3[C@@H]2OC[C@@H]3O)cc1 | 95 |

### Prompt Reported solubility at 20 h, molecule `CO[C@H]1CO[C@H]2[C@@H]1OC[C@@H]2Oc1ccc(-c2c(C)[nH]c3ccc(Cl)cc3c2=O)cc1` : ____
### Response 22
